Below is a list of entries, each paired with its recorded photoluminescence quantum yield value.
experiment: photoluminescence quantum yield (fraction); solvent given as SMILES; settings: in ClCCl
Assay metric: photoluminescence quantum yield

- Smiles record: "CCC(CC)COC1=CC2=C3c4cc(OCC(CC)CC)c(-c5ccccc5)n4[B-](F)(F)[n+]4c3n(c3cc(C(C)(C)C)ccc34)[B-](F)(F)[N+]2=C1c1ccccc1"
  Measured result: 0.13
- Smiles record: "CCCCN1C(=O)c2cc(Oc3ccc(C(C)(C)C)cc3)c3c4c(Oc5ccc(C(C)(C)C)cc5)cc5c(=O)n6c(c7cc(Oc8ccc(C(C)(C)C)cc8)c(c8c(Oc9ccc(C(C)(C)C)cc9)cc(c2c38)C1=O)c4c57)=Cc1cccc[n+]1[B-]6(F)F"
  Measured result: 0.5
- Smiles record: "CC1(C)c2ccccc2N(c2ccc(-c3nc(-c4ccccn4)n(-c4ccccc4)n3)cc2)c2ccccc21"
  Measured result: 0.0612
- Smiles record: "C[Si]1(C)c2ccc(C#Cc3ccccc3)cc2C=Cc2cc(C#Cc3ccccc3)ccc21"
  Measured result: 0.36
- Smiles record: "CCCCCCCc1cc2c(o1)=CC1=C3c4cc5oc(CCCCCCC)cc5n4[B-](F)(F)[n+]4nnn(c43)[B-](F)(F)[N+]=21"
  Measured result: 0.39
- Smiles record: "CC(C)[Si]1(C(C)C)c2cc(C=C(C#N)C#N)ccc2-c2ccc(N(C)C)cc21"
  Measured result: 0.56
- Smiles record: "C[Si]1(C)O[Si](C)(C)c2cc3c(-c4ccccc4)c4cc(Cl)ccc4nc3cc21"
  Measured result: 0.34
- Smiles record: "c1ccc2c(c1)sc1c3ccccc3c3ncncc3c21"
  Measured result: 0.08
- Smiles record: "Cn1nc(-c2ccc(C#N)cc2)cc1-c1ccccc1"
  Measured result: 0.7
- Smiles record: "O=C1NC(=O)c2c1c1c3ccccc3[nH]c1c1[nH]c3ccccc3c21"
  Measured result: 0.18
- Smiles record: "C(=C\\c1nc2ccccc2s1)/c1ccc(-c2nc3c4cccnc4c4ncccc4c3[nH]2)cc1"
  Measured result: 0.25
- Smiles record: "COc1c2ccccc2c(OC)c2c1c1ccc(C)cc1n2C"
  Measured result: 0.57
- Smiles record: "c1ccc(B2Nc3cc4c(cc3-c3sccc32)NB(c2ccccc2)c2ccsc2-4)cc1"
  Measured result: 0.17
- Smiles record: "CCCCCCOc1cc(/C=C/c2cc(OCCCCCC)c(/C=C/c3cc(OCCCCCC)c(C=C(C#N)C#N)cc3OCCCCCC)cc2OCCCCCC)c(OCCCCCC)cc1C=C(C#N)C#N"
  Measured result: 0.13
- Smiles record: "COc1cc(/C=C/c2ccccn2)c(OC)cc1C=O"
  Measured result: 0.36
- Smiles record: "O=C1c2ccccc2-c2ccc(N3CCOCC3)c3cccc1c23"
  Measured result: 0.53
- Smiles record: "CCc1c(C)[nH]c(C2=[N+]3C(=Cc4c(C)c(CC)c(C)n4[B-]3(F)F)c3ccccc32)c1C"
  Measured result: 0.73

Recorded values, source the Deep4Chem optical property database.
